Target: PfTyrRS (Plasmodium falciparum)
Experiment: Differential scanning fluorimetry (DSF) of PfTyrRS
Type: binding
Conditions: with sulfamate, ATP, tyrosine and tRNA; apo 49.9 ± 0.6
Protocol: The effect on ML471 and analogues on the thermal stability of TyrRS enzymes was assayed as previously described. […] SYPRO Orange (Sigma-Aldrich; 5,000X concentrate in DMSO) was added to the reaction mixture at a final concentration of 5X. […] The plate was sealed and analysed using StepOnePlus Real-Time PCR system (Applied Biosystems). […] The thermal unfolding curve was plotted as the first derivative curve of the raw fluorescence values. […]
Reported values of PfTyrRS Tm for individual entries
Just the number in °C, nothing appended.

IN: Quick one: give measured PfTyrRS Tm for CCc1nn([C@@H]2O[C@H](COS(N)(=O)=O)[C@@H](O)[C@H]2O)c2ncnc(N)c12 [ML681]
OUT: 66.3

IN: Quick one: give measured PfTyrRS Tm for Nc1ncnc2c1c(OC(F)F)nn2[C@@H]1O[C@H](COS(N)(=O)=O)[C@@H](O)[C@H]1O [ML901]
OUT: 65.1

IN: Quick one: give measured PfTyrRS Tm for CC(=O)c1nn([C@@H]2O[C@H](COS(N)(=O)=O)[C@@H](O)[C@H]2O)c2ncnc(N)c12 [ML111]
OUT: 65.0

IN: Quick one: give measured PfTyrRS Tm for CC(C)Oc1nn([C@@H]2O[C@H](COS(N)(=O)=O)[C@@H](O)[C@H]2O)c2ncnc(N)c12 [ML723]
OUT: 66.1

IN: Quick one: give measured PfTyrRS Tm for Nc1ncnc2c1ncn2[C@@H]1O[C@H](COS(N)(=O)=O)[C@@H](O)[C@H]1O [AMS, adenosine 5’-monosulfamate, reference compound]
OUT: 63.5

IN: Quick one: give measured PfTyrRS Tm for CCOc1nn([C@@H]2O[C@H](COS(N)(=O)=O)[C@@H](O)[C@H]2O)c2ncnc(N)c12 [ML676]
OUT: 65.5

IN: Quick one: give measured PfTyrRS Tm for CC(C)c1nn([C@@H]2O[C@H](COS(N)(=O)=O)[C@@H](O)[C@H]2O)c2ncnc(N)c12 [ML471]
OUT: 67.9

====

Target: UniProtKB P22314
Sequence (P22314 1-1058): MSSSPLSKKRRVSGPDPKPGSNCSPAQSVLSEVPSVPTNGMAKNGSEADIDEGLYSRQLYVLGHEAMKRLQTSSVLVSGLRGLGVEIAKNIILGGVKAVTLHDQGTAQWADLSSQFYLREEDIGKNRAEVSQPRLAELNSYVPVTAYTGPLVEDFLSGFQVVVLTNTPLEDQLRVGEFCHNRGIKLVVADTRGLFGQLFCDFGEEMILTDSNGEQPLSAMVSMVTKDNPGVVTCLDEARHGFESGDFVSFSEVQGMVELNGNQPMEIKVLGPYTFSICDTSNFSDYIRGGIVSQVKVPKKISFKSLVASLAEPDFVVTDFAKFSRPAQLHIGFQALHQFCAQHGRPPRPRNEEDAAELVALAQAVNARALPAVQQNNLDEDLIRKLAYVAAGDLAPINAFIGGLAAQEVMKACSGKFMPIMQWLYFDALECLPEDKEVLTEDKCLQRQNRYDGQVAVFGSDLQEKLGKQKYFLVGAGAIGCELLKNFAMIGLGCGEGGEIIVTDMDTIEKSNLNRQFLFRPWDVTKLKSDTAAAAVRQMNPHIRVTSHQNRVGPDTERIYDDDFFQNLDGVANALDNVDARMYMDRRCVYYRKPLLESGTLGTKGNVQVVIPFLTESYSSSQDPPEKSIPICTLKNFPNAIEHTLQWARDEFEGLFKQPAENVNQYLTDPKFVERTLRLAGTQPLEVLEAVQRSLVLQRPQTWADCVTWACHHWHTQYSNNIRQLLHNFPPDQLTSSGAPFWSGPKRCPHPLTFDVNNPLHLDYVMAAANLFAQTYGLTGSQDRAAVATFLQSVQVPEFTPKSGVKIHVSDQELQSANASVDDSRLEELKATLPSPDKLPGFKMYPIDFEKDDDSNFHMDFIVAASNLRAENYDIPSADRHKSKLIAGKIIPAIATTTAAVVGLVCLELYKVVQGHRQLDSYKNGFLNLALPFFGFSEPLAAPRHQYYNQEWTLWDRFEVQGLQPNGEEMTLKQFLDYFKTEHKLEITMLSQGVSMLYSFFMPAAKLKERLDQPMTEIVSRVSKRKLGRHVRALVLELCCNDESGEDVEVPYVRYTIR
measurementKind: pIC50
Would you please state pIC50, meaning minus log10 of the concentration in mol/L, as a bare number?

>  <compoundString>
Nc1ncnc2c1c(C(F)(F)F)nn2[C@@H]1O[C@H](COS(N)(=O)=O)[C@@H](O)[C@H]1O

>  <measurementKind>
pIC50

>  <dataValue>
4.64

$$$$
>  <compoundString>
CCOc1nn([C@@H]2O[C@H](COS(N)(=O)=O)[C@@H](O)[C@H]2O)c2ncnc(N)c12

>  <measurementKind>
pIC50

>  <dataValue>
4.13

$$$$
>  <compoundString>
Nc1ncnc2c1c(OC(F)F)nn2[C@@H]1O[C@H](COS(N)(=O)=O)[C@@H](O)[C@H]1O

>  <measurementKind>
pIC50

>  <dataValue>
5.27

$$$$

IN: Quick one: give measured pIC50 for CC(C)c1nn([C@@H]2O[C@H](COS(N)(=O)=O)[C@@H](O)[C@H]2O)c2ncnc(N)c12
OUT: 4.07

====

Assay: Blood exposure in the P. falciparum infected SCID mouse model
Assay type: in vivo, NODscidIL2Rγ^null mice engrafted with human RBCs
Conditions: female, NODscidIL2Rγnull engrafted with human RBCs, mouse, whole blood, po, 50 mg/kg, 4 x 50 mg/kg p.o., at 24 h after the first dose, read-out: AUC0-24h
measurementKind: AUC(0-t)

IN: Quick one: give measured AUC(0-t) for CC(C)c1nn([C@@H]2O[C@H](COS(N)(=O)=O)[C@@H](O)[C@H]2O)c2ncnc(N)c12
OUT: 54 µM·h

====

Experiment: Blood exposure in the P. falciparum infected SCID mouse model
Type: in vivo, NODscidIL2Rγ^null mice engrafted with human RBCs
Conditions: female, NODscidIL2Rγ^null, mouse, whole blood, po, 200 mg/kg, 1 x 200 mg/kg p.o., mice M3, M4, read-out: AUC0-120h (individual mice)
measurementKind: AUC(0-t)
In your response, put the unit directly after the numeric value.

IN: Quick one: give measured AUC(0-t) for CC(C)c1nn([C@@H]2O[C@H](COS(N)(=O)=O)[C@@H](O)[C@H]2O)c2ncnc(N)c12
OUT: 171 µg·h/mL

====

Assay: Blood exposure in the P. falciparum infected SCID mouse model
Format: in vivo, NODscidIL2Rγ^null mice engrafted with human RBCs
Settings: female, NODscidIL2Rγnull engrafted with human RBCs, mouse, whole blood, po, 100 mg/kg, single dose 100 mg/kg p.o., read-out: AUC0-120h
measurementKind: AUC(0-t) (µM·h)
Just the number in µM·h, nothing appended.

IN: Quick one: give measured AUC(0-t) for CC(C)c1nn([C@@H]2O[C@H](COS(N)(=O)=O)[C@@H](O)[C@H]2O)c2ncnc(N)c12 [ML471]
OUT: 640

====

Assay: Blood exposure in the P. falciparum infected SCID mouse model
Type: in vivo, NODscidIL2Rγ^null mice engrafted with human RBCs
Settings: female, NODscidIL2Rγ^null, mouse, whole blood, po, 50 mg/kg, 4 days x 50 mg/kg p.o., mice M1, M2, read-out: AUC0-24h (individual mice)
measurementKind: AUC(0-t) (ng·h/mL)
Just the number in ng·h/mL, nothing appended.

IN: Quick one: give measured AUC(0-t) for CC(C)c1nn([C@@H]2O[C@H](COS(N)(=O)=O)[C@@H](O)[C@H]2O)c2ncnc(N)c12 [ML471]
OUT: 19600

====

Test: Rat pharmacokinetics
Assay type: in vivo, Sprague-Dawley rats
Settings: male, Sprague-Dawley, whole blood and plasma, intravenous, 1 mg/kg, time 2 h
measurementKind: blood plasma ratio at 2 h

IN: Quick one: give measured blood plasma ratio at 2 h for CC(C)c1nn([C@@H]2O[C@H](COS(N)(=O)=O)[C@@H](O)[C@H]2O)c2ncnc(N)c12
OUT: 17.8

====

Molecular target: PfTyrRS (Plasmodium falciparum, UniProt Q8IAR7)
Sequence (Q8IAR7 entry or part of it): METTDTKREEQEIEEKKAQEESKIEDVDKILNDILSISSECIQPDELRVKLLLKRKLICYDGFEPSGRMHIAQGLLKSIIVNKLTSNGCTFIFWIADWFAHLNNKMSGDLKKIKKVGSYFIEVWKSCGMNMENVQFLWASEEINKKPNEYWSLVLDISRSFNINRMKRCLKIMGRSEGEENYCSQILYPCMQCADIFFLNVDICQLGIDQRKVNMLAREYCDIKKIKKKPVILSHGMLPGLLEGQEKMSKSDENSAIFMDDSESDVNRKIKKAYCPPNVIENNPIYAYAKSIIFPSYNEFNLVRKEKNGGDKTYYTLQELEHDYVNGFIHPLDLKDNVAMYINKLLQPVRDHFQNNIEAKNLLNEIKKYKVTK
Test: ATP consumption by PfTyrRS (Kinase Glo)
Assay type: biochemical
Conditions: PfTyrRS 25 nM, ATP 10 μM, tyrosine 200 μM, cognate tRNA^Tyr 4.8 μM, 37°C 1 h; read-out: Inhibition of PfTyrRS (Kinase Glo) IC50
The label is Y for IC50 below 20 µM and N for IC50 equal to or exceeding 20 µM.

Check out these entries, answers already filled in.
>  <compoundString>
CCc1nn([C@@H]2O[C@H](COS(N)(=O)=O)[C@@H](O)[C@H]2O)c2ncnc(N)c12

>  <answerLabel>
N

$$$$
>  <compoundString>
Nc1ncnc2c1c(Oc1ccccc1)nn2[C@@H]1O[C@H](COS(N)(=O)=O)[C@@H](O)[C@H]1O

>  <answerLabel>
N

$$$$
>  <compoundString>
CC(C)c1nn([C@@H]2O[C@H](COS(N)(=O)=O)[C@@H](O)[C@H]2O)c2ncnc(N)c12

>  <answerLabel>
Y

$$$$
>  <compoundString>
CC(=O)c1nn([C@@H]2O[C@H](COS(N)(=O)=O)[C@@H](O)[C@H]2O)c2ncnc(N)c12

>  <answerLabel>
N

$$$$
>  <compoundString>
CC(C)Oc1nn([C@@H]2O[C@H](COS(N)(=O)=O)[C@@H](O)[C@H]2O)c2ncnc(N)c12

>  <answerLabel>
Y

$$$$

IN: Dear colleague, could you confirm whether IC50 of Nc1ncnc2c1c(C(F)(F)F)nn2[C@@H]1O[C@H](COS(N)(=O)=O)[C@@H](O)[C@H]1O falls below 20 µM? Thanks.
OUT: N

IN: Dear colleague, could you confirm whether IC50 of Nc1ncnc2c1c(C1CC1)nn2[C@@H]1O[C@H](COS(N)(=O)=O)[C@@H](O)[C@H]1O falls below 20 µM? Thanks.
OUT: Y
